- method.notes: Stat Signaling Pathway (AID 446);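 further: ME-180 cervical cancer cells given 40 pM IL-6 alongside compound; SIE-controlled beta-lactamase reporter measured as 460/530 nm FRET emission ratio; on the % scale 0 is the no-effect control and ±100 the full control effect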
- condition.description: ME-180 SIE beta-lactamase reporter, IL-6 stimulated, 5 h; at 7.69 µM (top of the series) unless noted
Inconclusive results are not listed.
Below: a set of entries, each annotated with reported activity, negative = inhibition.

compound | units.symbol | activity, negative = inhibition
O=C(c1ccncc1)N1CCC2(CC1)CN(Cc1cc(C(F)(F)F)cc(C(F)(F)F)c1)C2 | % | -8.98
Cc1ccccc1-c1nc(NC2CC2)c2ccccc2n1 | % | -0.286
COc1ccc(-n2c(=O)c(-c3ccccc3)nc3cncnc32)cc1 | % | -9.27
FC(F)(F)c1ccccc1-c1cncnc1NCCc1cnc[nH]1 | % | -1.23
COc1cccc(-c2cncnc2NCc2cccs2)c1 | % | -6.14
CN(C)Cc1ccccc1-c1cncnc1Nc1ccc(F)cc1 | % | 15.8
COCC(=O)N1CCC2(CC1)CN(C(=O)Nc1ccccc1)C2 | % | -7.39
Cc1nc2cncnc2n(Cc2ccc(F)cc2)c1=O | % | -9.93
COc1ccc(C(=O)N2CCC3(CCCN(CC(C)C)C3)CC2)cc1 | % | -5.73
COc1ccc(Oc2ncc3nc(-c4ccc(OC)cc4)c(=O)n(CCC#N)c3n2)cc1 | % | 2.86
COCCn1c(=O)c(-c2cccs2)nc2cnc(N3CCN(C)CC3)nc21 | % | 12
N#Cc1ccccc1-c1ccc2ncnc(NCc3cccs3)c2c1 | % | -2.46

----------
- method.notes: Stat Signaling Pathway (AID 446);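 further: ME-180 cervical cancer cells given 40 pM IL-6 alongside compound; SIE-controlled beta-lactamase reporter measured as 460/530 nm FRET emission ratio; on the % scale 0 is the no-effect control and ±100 the full control effect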
- condition.description: ME-180 (cervical carcinoma) SIE beta-lactamase reporter, IL-6 stimulated, 5 h; at 7.69 µM (top of the series) unless noted
Records with an inconclusive call do not appear.
Below: a set of entries, each annotated with reported activity, negative = inhibition.
readout.label: activity, negative = inhibition (%)

compound | endpoint.result
c1nc(N2CCOCC2)c2cc(-c3ccoc3)ccc2n1 | -19.4
c1ccc(CNc2ncnc3ccc(-c4ccc5c(c4)OCO5)cc23)cc1 | -5.81
Cc1cccc(CNc2ncnc3ccc(-c4cccc(NS(C)(=O)=O)c4)cc23)c1 | -1.79
COc1ncc2nc(-c3cn(C)c4ccccc34)c(=O)n(C)c2n1 | 7.15
Cc1ccccc1-c1nccc(NCc2cccnc2)n1 | -15.6
O=C(c1cnccn1)N1CCC2(CC1)CN(C(c1ccccc1)c1ccccc1)C2 | -4.86
Cc1cccc(CNc2nc(-c3cccc(NS(C)(=O)=O)c3)nc3ccccc23)c1 | -23
Cn1cccc1C(=O)N1CCC2(CC1)CN(c1ccncc1)C2 | -3.69
Cn1c(=O)c(CCc2ccccc2)nc2cncnc21 | -13.2
c1cncc(-c2nc(-n3ccnc3)c3ccccc3n2)c1 | -3.82
COc1cccc(Nc2ncc3nc(CCc4ccccc4)c(=O)n(CCC#N)c3n2)c1 | -2.69

----------
- method.notes: qHTS Assay for Lipid Storage Modulators (AID 1519); further: on the % scale 0 is the no-effect control and ±100 the full control effect
- condition.description: Drosophila S3 cells, BODIPY lipid droplet/cell ratio, laser cytometry; at 57.5 µM (top of the series); cells loaded with oleic acid
Inconclusive results are not listed. Active and inactive are the calls of the source. Calls come from the whole dose curve.
Below: a set of entries, each annotated with reported activity change, negative = inhibition.

compound | activity change, negative = inhibition
Cc1cccc(CNc2nc(-c3ccoc3)nc3ccccc23)c1 | 11.1% (inactive)
N#Cc1ccc(CN2CCC3(CC2)CCN(C(=O)c2cccc(F)c2)CC3)cc1 | 1.66% (inactive)
CC(=O)Oc1ccccc1C(=O)Oc1ccccc1C(=O)O | -0.43% (inactive)
CN(C)Cc1ccccc1-c1cncnc1NCc1cccs1 | 5.02% (inactive)
COC(=O)c1c(C)c2c(c(C)c1O)OC(=O)c1c(C)c(Cl)c(O)c(Cl)c1O2 | 9.5% (inactive)
Cc1noc(C)c1C(=O)N1CCC2(CCN(Cc3ccccc3)CC2)CC1 | 0.801% (inactive)

----------
- assayed.system: Mitogen-activated protein kinase 10 (Mus musculus)
- method.notes: JNK3 AlphaScreen Assay (AID 530)
- condition.description: JNK3 lysate, c-Jun phosphorylation; series mostly up to 57.1 µM
Records with an inconclusive call do not appear. The source made the active and inactive calls. Calls come from the whole dose curve; as a rule, active = well fitted curve in either direction with a large enough effect (not every such curve was filed as active); inconclusive = small, poorly fitted or top-dose-only effect, or another doubt; inactive = flat fitted curve, though single readings scatter.

compound | assayed.system | outcome
O=S(=O)(c1ccccc1)N1CCC2(CC1)CN(c1ccccn1)C2 | Mitogen-activated protein kinase 10 (Mus musculus) | inactive
COc1ccc(Oc2ncc3nc(-c4ccc(Cl)cc4)c(=O)n(C4CC4)c3n2)cc1 | Mitogen-activated protein kinase 10 (Mus musculus) | inactive
Cc1nc2cnc(N(C)C)nc2n(CCc2ccccc2)c1=O | Mitogen-activated protein kinase 10 (Mus musculus) | inactive
COc1ccc(-c2nc3cnc(OC)nc3n(-c3ccc(OC)cc3)c2=O)cc1 | Mitogen-activated protein kinase 10 (Mus musculus) | inactive
N#CCCn1c(=O)c(CCc2ccccc2)nc2cnc(Nc3ccccc3)nc21 | Mitogen-activated protein kinase 10 (Mus musculus) | inactive
O=C(c1csnn1)N1CCC[C@@]2(CCN(c3cccc(-c4ccccc4)c3)C2)C1 | Mitogen-activated protein kinase 10 (Mus musculus) | inactive
Cn1c(=O)c(-c2ccc(F)c(F)c2)nc2cncnc21 | Mitogen-activated protein kinase 10 (Mus musculus) | inactive
COc1ccc(CNc2ncncc2-c2ccc(C(=O)N(C)C)cc2)c(OC)c1 | Mitogen-activated protein kinase 10 (Mus musculus) | inactive
CS(=O)(=O)Nc1cccc(-c2nc(-n3ccnc3)c3ccccc3n2)c1 | Mitogen-activated protein kinase 10 (Mus musculus) | inactive
O=C(Nc1ccccc1)N1CCCC2(CCN(C(=O)c3csnn3)CC2)C1 | Mitogen-activated protein kinase 10 (Mus musculus) | inactive

----------
Below: a set of entries, each annotated with reported activity change, negative = inhibition.
- method.notes: qHTS Assay for Lipid Storage Modulators (AID 1519); further: on the % scale 0 is the no-effect control and ±100 the full control effect
- condition.description: Drosophila S3 cells, BODIPY lipid droplet/cell ratio, laser cytometry; at 57.5 µM (top of the series); cells loaded with oleic acid
Inconclusive results are not listed.
readout.label: activity change, negative = inhibition (%)

molecule | units.symbol | endpoint.result
COc1ccc(Oc2ncc3nc(-c4cn(C)c5ccccc45)c(=O)n(CCC#N)c3n2)cc1 | % | -4.32
Cc1noc(C)c1C(=O)N1CCC2(CC1)CN(c1ccccn1)C2 | % | 4.72
CN(C)C(=O)c1ccc(-c2nc(NCc3cccs3)c3ccccc3n2)cc1 | % | 12.5
CC(C)CN1CCCC2(CCN(S(=O)(=O)c3ccccc3)CC2)C1 | % | 2.73
O=C(c1cccc(F)c1)N1CCC2(CC1)CN(c1ccccn1)C2 | % | 6.42
COc1ccc2[nH]cc(CCNc3nc(-c4cccc(NS(C)(=O)=O)c4)nc4ccccc34)c2c1 | % | 8.36
COC(=O)N1CCC2(CCCN(c3ccccn3)C2)CC1 | % | 1.3
COc1ccc(C(=O)N2CCC[C@@]3(CCN(C(=O)NC(C)C)C3)C2)cc1 | % | 3.48
O=c1ccc2ccc(O)cc2o1 | % | 5.83
COc1ccccc1CN1CCC2(CC1)CCN(S(C)(=O)=O)CC2 | % | -1.09
O=C(Nc1ccccc1)N1CC[C@@]2(CCCN(C(=O)c3cccc(F)c3)C2)C1 | % | 5.88
Nc1ccc(C(=O)O)c(O)c1 (tested in a mixture with another compound) | % | 15.3
COc1ccc(C(=O)O)c(O)c1OC | % | 7.29
COc1ccc(CNc2cc(-c3ccccc3CN(C)C)ncn2)c(OC)c1 | % | 3.53
COc1ccccc1CNc1ccnc(-c2ccccc2C(F)(F)F)n1 | % | 5.29
COc1cc2c3cc1Oc1c(OC)c(OC)cc4c1[C@@H](Cc1ccc(O)c(c1)Oc1ccc(cc1)C[C@@H]3N(C)CC2)N(C)CC4 | % | 6.85
O=C1CC[C@@]23/C=C/C(=O)NCCCCNCCCNC(=O)/C=C/c4ccc(c2c4)OC3C1 (some centres not stated) | % | 2.57
COCC(=O)N1CCC[C@@]2(CCN(C(=O)Nc3ccccc3)C2)C1 | % | 5.08
CCNc1ncc2ncc(=O)n(C[C@H]3CCCO3)c2n1 | % | 1.57
O=C(O)[C@H]1CCCN(CCC=C(c2ccccc2)c2ccccc2)C1 | % | -4.66
COc1ccc(C(=O)N2CCC3(CCN(Cc4ccc(C#N)cc4)CC3)CC2)cc1 | % | 1.02
CN1CCN(c2ncc3nc(-c4ccc(F)cc4)c(=O)n(C4CC4)c3n2)CC1 | % | -0.731

----------
- assayed.system: Cytochrome P450 3A4 (Homo sapiens)
- method.notes: qHTS Assay for Inhibitors and Substrates of Cytochrome P450 3A4 (AID 884); further: nearly all actives have a fitted effect of over 50% in size
- condition.description: recombinant CYP3A4, Luciferin-PPXE luminescence; series mostly up to 57.1 µM
Inconclusive results are not listed. Activity calls are given as the source filed them. Calls follow the shape of the dose curve; as a rule, active = well fitted inhibition curve with a large enough effect; inconclusive = small, poorly fitted or top-dose-only effect; inactive = no such curve, though single readings can be large or run the other way.
Labels: yes (active), no (inactive)

compound | assigned.class
O=c1c(O)c(-c2ccc(O)cc2)oc2ccccc12 | yes
Fc1ccc(Nc2nc(-c3ccoc3)nc3ccccc23)cc1 | yes
COc1cccc(Nc2ncc3nc(-c4cccs4)c(=O)n(CCC#N)c3n2)c1 | yes
CN(C)c1ccc(-c2nc(-n3ccnc3)c3ccccc3n2)cc1 | yes
Fc1ccc(Nc2ccnc(-c3ccc4c(c3)OCO4)n2)cc1 | yes
COc1ccccc1CNc1ccnc(-c2ccc(N(C)C)cc2)n1 | yes
N#Cc1cccc(NC(=O)N2CCC3(CC2)CCN(C(=O)c2cccc(F)c2)CC3)c1 | no
Cc1noc(C)c1-c1cncnc1Nc1ccccc1 | yes
COc1cccc(Cn2c(=O)c(-c3ccccc3)nc3cnc(N(C)C)nc32)c1 | yes
CC(=O)N1CCC2(CC1)CCN(C(c1ccccc1)c1ccccc1)CC2 | no
COc1ccc(CNc2ccnc(-c3cccc(NS(C)(=O)=O)c3)n2)c(OC)c1 | yes
